Recorded values, source PubChem BioAssay (NCI).

# Tested on: UO-31 renal
# method.notes: NCI tumour cell line growth inhibition, 48 h
recorded.metric: TGI

* O=S(=O)(O)CS(=O)(=O)OCCCl | > 100 µM
* N#C/C(=C1\N=C(c2ccccc2O)Oc2ccccc21)c1ccc([N+](=O)[O-])cc1 | > 100 µM
* COc1ccccc1C(=O)/C=C/c1cc2cccc(OC)c2[nH]c1=O | 1.68 µM
* CSc1c(C(=O)Nc2ccc(C)cc2)c(N)nn1-c1ccccc1 | > 100 µM
* Nc1ccn(C=C=CCO)c(=O)n1 | > 1000 µM
* COc1ccc(/C(=C/c2cc(OC)c(OC)c(OC)c2)[N+](=O)[O-])cc1 | 2.62 µM
* O=C(Nc1ccncc1)C(=O)c1cn(S(=O)(=O)c2ccc(Br)cc2)c2ccccc12 | > 100 µM
* O=C1/C(=C\c2ccc([N+](=O)[O-])cc2)Sc2scc(-c3ccc(O)c(O)c3)[n+]21 | 22.3 µM
* COc1cc2cc(Oc3ccc(NC(=O)Nc4cccc(C(F)(F)F)c4)cc3)c(C)nc2cc1OCCN1CCCCC1 | 2.79 µM

----------
# System: MCF7 breast
# method.notes: NCI tumour cell line growth inhibition, 48 h
recorded.metric: TGI (µM)

- COc1cc2c3c(n(C)c(=O)c2cc1OC)-c1cc2c(cc1/C3=C\CCCCN)OCO2: 12.7
- Cc1ccc(S(=O)(=O)N/N=C/C(Br)=C(/Br)C(=O)O)cc1: 51
- CC(=O)OCCC1c2ccccc2-n2nc(-c3ccccc3)c(O)c21 (stereo unspecified): 22.9
- O=C1/C(=C\c2ccc(Cl)cc2)CN(C(=S)Nc2ccccc2)C/C1=C\c1ccc(Cl)cc1: 1.15
- COc1ccccc1/C=C1\Sc2scc(-c3cccc([N+](=O)[O-])c3)[n+]2C1=O: 10.3
- COc1cc2cc(Oc3ccc(NC(=O)Nc4cccc(C(F)(F)F)c4)cc3)c(C)nc2cc1OCCN1CCCCC1: 3.33
- Oc1c(C2=NNC(c3cccs3)C2)ccc2ccccc12 (stereo unspecified): 51.7
- Cc1nc(-c2ccccc2)c(C)n2c1nc1ccccc12: 86.1
- CCOC(=O)c1cnc(SCc2ccc(Cl)c(Cl)c2)nc1N1CC1: 11.4
- CC(CC(=O)CO[C@H]1[C@H](O)[C@@H](O)[C@@H](O)[C@@H]2NC(=O)c3c(cc4c(c3O)OCO4)[C@H]21)OC1OC(CO)C(O)C(O)C1O (stereo partly specified): 1.47

----------
# System: UO-31 renal
# method.notes: NCI tumour cell line growth inhibition, 48 h
recorded.metric: TGI

- C[C@H](CCC1=NCCN1)[C@H]1CC[C@H]2[C@@H]3[C@H](O)C[C@@H]4C[C@H](O)CC[C@]4(C)[C@H]3CC[C@]12C: 27.8 µM
- COC(=O)C1Cc2ccc(C)cc2C1=O (stereo not given): > 100 µM
- Cn1c(=O)n2n(c1=O)Cc1cccc3cccc(c13)C2: > 100 µM
- Cc1cc(C)c(S(=O)(=O)N[C@@H](/C=C(\Br)CO)C(C)C)c(C)c1: > 100 µM
- CC12OC(C(=O)C13CC3)C1C(=O)c3ccccc3C(=O)C12 (stereo not given): > 100 µM

----------
# System: CCRF-CEM leukemia
# method.notes: NCI tumour cell line growth inhibition, 48 h; in the data active = GI50 below about 0.43 µM; inactive = the rest
Possible outcomes: active, inactive

- COc1ccc(/C=C2\CN(C(=O)CCN3CCC(=NO)CC3)C/C(=C\c3ccc(OC)cc3)C2=O)cc1: inactive
- Cc1ccc(S(=O)(=O)NC(CCC(=O)Nc2ccc(Cl)cc2)C(=O)Nc2ccc(Cl)cc2)cc1 (centres undefined): active
- O=C(Nc1ccncc1)C(=O)c1cn(S(=O)(=O)c2ccc(Br)cc2)c2ccccc12: inactive
- O/N=C1\CCc2cc(-c3nc(C4CCNCC4)[nH]c3-c3ccncc3)ccc21: inactive
- COc1cc2c(cc1OC)C(=O)C(Br)CC2 (centres undefined): inactive
- Cn1cc(-c2ccc(=O)n(Cc3cccc(-c4ncc(OCCN5CCOCC5)cn4)c3)n2)cn1: inactive
- O=C(CCCc1c[nH]c2ccccc12)NC1CC(=O)c2c(Br)sc(Br)c21 (centres undefined): inactive
- O=C1c2cc3c(cc2-c2c1c1cc(Cl)c(Cl)cc1c(=O)n2CCCn1ccnc1)OCO3: active
- COc1cc(-c2cc(C(=O)N3CCN(C(=O)c4ccccc4NCc4ccco4)CC3)nc3cc(-c4ccccc4)nn23)cc(OC)c1OC: inactive
